These entries and their values trace back to ChEMBL document CHEMBL5303573.

Conditions: bacteroides stercoris, 12 h, 2 µM
Description: The drug is tested on Bacteroides stercoris strain: ATCC43183 for biotransformation. The drug concentrations were measured before and after a 12-h incubation by liquid-chromatography-coupled mass spectrometry (LC–MS)
Measured attribute: Bacterial Biotransformation

Recorded Bacterial Biotransformation, per entry:
CC1OC(OC2C(O)CC(OC3C(O)CC(OC4CCC5(C)C(CCC6C5CCC5(C)C(C7=CC(=O)OC7)CCC65O)C4)OC3C)OC2C)CC(O)C1O (stereo not drawn) :: Compound metabolized
CC(C)(C)NCC(O)c1cc(Cl)c(N)c(Cl)c1 (stereo not drawn) :: Compound NOT metabolized
CCCCCNC(=N)N/N=C/c1c[nH]c2ccc(OC)cc12.O=C(O)/C=C\C(=O)O [TEGASEROD MALEATE] :: Compound NOT metabolized
CC(Oc1c(Cl)cccc1Cl)C1=NCCN1 (stereo not drawn) :: Compound metabolized
OCCOCCN1CCN(C2=Nc3ccccc3Sc3ccccc32)CC1 :: Compound NOT metabolized
CN1C(C(=O)Nc2ccccn2)=C(O)c2sccc2S1(=O)=O :: Compound NOT metabolized
CCOc1ccc2nc(S(N)(=O)=O)sc2c1 [ETHOXZOLAMIDE] :: Compound metabolized
COc1ccc(Cc2nccc3cc(OC)c(OC)cc23)cc1OC :: Compound NOT metabolized
COc1ccc2[nH]c([S+]([O-])Cc3ncc(C)c(OC)c3C)nc2c1 (stereo not drawn) :: Compound metabolized
N=C(N)NC(=O)Cc1c(Cl)cccc1Cl :: Compound NOT metabolized

Which Bacterial Biotransformation is listed for CN1CCC(=C2c3ccccc3CCc3cccnc32)CC1.O=C(O)/C=C\C(=O)O.O=C(O)/C=C\C(=O)O [AZATADINE MALEATE] ? Compound NOT metabolized

For the compound shown here, CN(C)CCC=C1c2ccccc2COc2ccccc21 [DOXEPIN] , give the reported Bacterial Biotransformation. Compound NOT metabolized

Need Bacterial Biotransformation of O=C(O)c1cc(/N=N/c2ccc(S(=O)(=O)Nc3ccccn3)cc2)ccc1O , thanks. Compound metabolized

// returns reported Bacterial Biotransformation for input COC(=O)[C@H](c1ccccc1Cl)N1CCc2sccc2C1.O=S(=O)(O)O [CLOPIDOGREL BISULFATE] Compound metabolized

Name the reported Bacterial Biotransformation value associated with the compound CCOc1cc(CC(=O)N[C@@H](CC(C)C)c2ccccc2N2CCCCC2)ccc1C(=O)O [REPAGLINIDE] Compound metabolized

Can you look up the measured Bacterial Biotransformation of CCCCC1=NC2(CCCC2)C(=O)N1Cc1ccc(-c2ccccc2-c2nnn[nH]2)cc1 for me? Compound metabolized

Requested field: Bacterial Biotransformation. Item: CC(C)(C)NC(=O)[C@H]1CC[C@H]2[C@@H]3CC[C@H]4NC(=O)C=C[C@]4(C)[C@H]3CC[C@]12C [FINASTERIDE] Compound NOT metabolized

Fill blank: measured Bacterial Biotransformation of the compound CCOC(=O)[C@H](CCc1ccccc1)N[C@@H](C)C(=O)N1CCC[C@H]1C(=O)O.O=C(O)/C=C\C(=O)O [ENALAPRIL MALEATE] is ____. Compound NOT metabolized

----------
Assay: The drug is tested on Bacteroides pectinophilus strain: ATCC43243 for biotransformation. The drug concentrations were measured before and after a 12-h incubation by liquid-chromatography-coupled mass spectrometry (LC–MS)
Conditions: 2 µM
Measured attribute: Bacterial Biotransformation

Illustrative cases are given below, each with its answer.
Cc1ccc(-c2cc(C(F)(F)F)nn2-c2ccc(S(N)(=O)=O)cc2)cc1 :: Compound NOT metabolized
CC(=O)Nc1ccc(OC(C)=O)cc1 [DIACETAMATE] :: Compound metabolized
N=C(N)NC(=O)Cc1c(Cl)cccc1Cl :: Compound NOT metabolized
CCCN(CCC)CCc1cccc2c1CC(=O)N2 :: Compound NOT metabolized
CN(C)CCc1c[nH]c2ccc(CS(=O)(=O)N3CCCC3)cc12 :: Compound NOT metabolized
Clc1ccc(Cn2c(CN3CCCC3)nc3ccccc32)cc1 :: Compound NOT metabolized
CCCC(=O)Nc1ccc(OCC(O)CNC(C)C)c(C(C)=O)c1 (stereo unspecified) :: Compound NOT metabolized
CC(C)(C)N.CCC[C@H](N[C@@H](C)C(=O)N1[C@H](C(=O)O)C[C@@H]2CCCC[C@@H]21)C(=O)OCC :: Compound NOT metabolized

// lookup Bacterial Biotransformation for CN1C[C@H](C(=O)N[C@]2(C)O[C@@]3(O)[C@@H]4CCCN4C(=O)[C@H](Cc4ccccc4)N3C2=O)C=C2c3cccc4[nH]cc(c34)C[C@H]21.CN1C[C@H](C(=O)N[C@]2(C)O[C@@]3(O)[C@@H]4CCCN4C(=O)[C@H](Cc4ccccc4)N3C2=O)C=C2c3cccc4[nH]cc(c34)C[C@H]21.O=C(O)C(O)C(O)C(=O)O [ERGOTAMINE TARTRATE] Compound metabolized

----------
Conditions: roseburia intestinalis, 12 h, 2 µM
Description: The drug is tested on Roseburia intestinalis strain: L1-82 for biotransformation. The drug concentrations were measured before and after a 12-h incubation by liquid-chromatography-coupled mass spectrometry (LC–MS)
Measured attribute: Bacterial Biotransformation

Study these solved cases before continuing.
CC(C)(Oc1ccc(CCNC(=O)c2ccc(Cl)cc2)cc1)C(=O)O [BEZAFIBRATE] :: Compound metabolized
Nc1nc2ccc(OC(F)(F)F)cc2s1 :: Compound NOT metabolized
CN(C)C(=O)C(CCN1CCC(O)(c2ccc(Cl)cc2)CC1)(c1ccccc1)c1ccccc1 [LOPERAMIDE] :: Compound metabolized
CN1[C@@H]2CC[C@H]1C[C@@H](OC(=O)C(CO)c1ccccc1)C2 (stereo partly specified) :: Compound NOT metabolized
CCOc1ccc2nc(S(N)(=O)=O)sc2c1 [ETHOXZOLAMIDE] :: Compound metabolized

So what's the measured Bacterial Biotransformation for this one? C[C@H]1O[C@@H](O[C@H]2[C@@H](O)C[C@H](O[C@H]3[C@@H](O)C[C@H](O[C@H]4CC[C@@]5(C)[C@H](CC[C@@H]6[C@@H]5C[C@@H](O)[C@]5(C)[C@@H](C7=CC(=O)OC7)CC[C@]65O)C4)O[C@@H]3C)O[C@@H]2C)C[C@H](O)[C@@H]1O Compound NOT metabolized

Need Bacterial Biotransformation, item O=c1n(CCCN2CCN(c3cccc(Cl)c3)CC2)nc2ccccn12 Compound NOT metabolized

# query: Bacterial Biotransformation of entry COc1ccc2c3c1O[C@H]1C[C@@H](O)C=C[C@@]31CCN(C)C2 Compound NOT metabolized

----------
Settings: bacteroides thetaiotaomicron, 12 h, 2 µM
Description: The drug is tested on Bacteroides thetaiotaomicron strain: VPI-5482 for biotransformation. The drug concentrations were measured before and after a 12-h incubation by liquid-chromatography-coupled mass spectrometry (LC–MS)
Measured attribute: Bacterial Biotransformation

CN/C(=N/CCSCc1nc[nH]c1C)NC#N :: Compound metabolized
CC(=O)OCC(=O)[C@@]1(O)[C@@H](C)C[C@H]2[C@@H]3CCC4=CC(=O)C=C[C@]4(C)[C@@]3(F)[C@@H](O)C[C@@]21C [BETAMETHASONE ACETATE] :: Compound metabolized
CC(C)c1c(CN(C)C(C)Cc2ccccc2)n(C)n(-c2ccccc2)c1=O (centres undefined) :: Compound metabolized

----------
Assay: The drug is tested on Bacteroides uniformis strain: ATCC8492 for biotransformation. The drug concentrations were measured before and after a 12-h incubation by liquid-chromatography-coupled mass spectrometry (LC–MS)
Details: 2 µM
Measured attribute: Bacterial Biotransformation

Some compounds with known Bacterial Biotransformation results, for comparison:
N[C@@H](Cc1ccc(N(CCCl)CCCl)cc1)C(=O)O :: Compound metabolized
CC(=O)OCC(=O)NCCCOc1cccc(CN2CCCCC2)c1 [ROXATIDINE ACETATE] :: Compound metabolized
CN(CCOc1ccc(CC2SC(=O)NC2=O)cc1)c1ccccn1.O=C(O)/C=C\C(=O)O (stereo not drawn) [ROSIGLITAZONE MALEATE] :: Compound NOT metabolized
CCCC(C)(COC(N)=O)COC(=O)NC(C)C (stereo not drawn) :: Compound metabolized
CN(C/C=C/C#CC(C)(C)C)Cc1cccc2ccccc12 :: Compound NOT metabolized
Nc1nc(N)nc(-c2cc(Cl)ccc2Cl)n1.O=C(O)/C=C\C(=O)O [IRSOGLADINE MALEATE] :: Compound NOT metabolized

# next compound below
What value of measured Bacterial Biotransformation is listed for Br.COc1ccc2c(c1)[C@]13CCCC[C@@H]1[C@H](C2)N(C)CC3.O [DEXTROMETHORPHAN HYDROBROMIDE] ? Compound NOT metabolized

----------
Experiment: The drug is tested on Anaerotruncus colihominis strain: DSM17241 for biotransformation. The drug concentrations were measured before and after a 12-h incubation by liquid-chromatography-coupled mass spectrometry (LC–MS)
Conditions: 2 µM
Measured attribute: Bacterial Biotransformation

Worked cases, answers included:
CN1CCN(C(=O)O[C@H]2c3nccnc3C(=O)N2c2ccc(Cl)cn2)CC1 :: Compound metabolized
COc1ccc(CN2CCNCC2)c(OC)c1OC.Cl.Cl [TRIMETAZIDINE DIHYDROCHLORIDE] :: Compound NOT metabolized
COC(=O)C1=C(C)NC(C)=C(C(=O)OC(C)C)C1c1cccc2nonc12 (centres undefined) :: Compound NOT metabolized
Fc1ccc([C@@H]2CCNC[C@H]2COc2ccc3c(c2)OCO3)cc1 :: Compound metabolized
COc1ccccc1OCC(O)CN1CCN(CC(=O)Nc2c(C)cccc2C)CC1 (centres undefined) :: Compound NOT metabolized

Reported Bacterial Biotransformation, compound Cc1nc2n(c(=O)c1CCN1CCC(c3noc4cc(F)ccc34)CC1)CCCC2 : ____ Compound metabolized

Given the compound CN(C)CCC=C1c2ccccc2C=Cc2ccccc21 , what is its reported Bacterial Biotransformation? Compound NOT metabolized

Using the record for COc1ccc(C(CN(C)C)C2(O)CCCCC2)cc1 (centres undefined) , report its Bacterial Biotransformation. Compound NOT metabolized

Give the measured Bacterial Biotransformation of CCN(CC)CCOCCOC(=O)C1(c2ccccc2)CCCC1.O=C(O)CC(O)(CC(=O)O)C(=O)O [CARBETAPENTANE CITRATE] . Compound metabolized
